- assayed.target: Human GLP-1 receptor (Homo sapiens)
- Construct: expressed in transfected cells
- Sequence (P43220 24-463): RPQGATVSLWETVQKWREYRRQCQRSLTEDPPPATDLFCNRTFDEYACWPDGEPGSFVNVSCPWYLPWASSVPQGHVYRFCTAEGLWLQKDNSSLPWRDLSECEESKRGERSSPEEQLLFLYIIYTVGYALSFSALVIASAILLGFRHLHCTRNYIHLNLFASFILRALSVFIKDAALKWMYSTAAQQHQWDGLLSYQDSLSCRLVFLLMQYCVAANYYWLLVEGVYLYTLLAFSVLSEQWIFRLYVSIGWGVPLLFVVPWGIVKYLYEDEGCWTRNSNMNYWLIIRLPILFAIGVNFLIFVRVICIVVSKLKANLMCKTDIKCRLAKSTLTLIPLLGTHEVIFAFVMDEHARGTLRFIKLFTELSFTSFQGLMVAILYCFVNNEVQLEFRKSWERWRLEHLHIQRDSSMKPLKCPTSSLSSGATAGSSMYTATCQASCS
- procedure.details: Measurement of GLP-1 receptor agonist activity (cAMP assay)
- Type: cell-based
- experimental.context: cAMP increase in GLP-1 R/CHO-K1 cells; 2 nM human GLP-1 (7-36) = 100%, DMSO only = 0%
Hi! Just check whether EC50 is below 0.2 nM. Below gives condition met, equal or above gives condition not met.

// known answers, use as guide
| cpd.smiles | category |
| --- | --- |
| C[C@H]1c2nc(OCc3ccc(Cl)cc3F)ccc2CCN1Cc1nc2ccc(C(=O)O)cc2n1C[C@@H]1CCO1 | condition not met |
| Cc1ccc(COc2nc3c(cc2C(F)(F)F)CCN(Cc2nc4ccc(C(=O)O)cc4n2C[C@@H]2CCO2)C3)cc1 | condition not met |
| C[C@H]1c2nc(OCc3c(F)cc(F)cc3F)c(C(F)(F)F)cc2CCN1Cc1nc2ccc(C(=O)O)nc2n1C[C@@H]1CCO1 | condition met |
| COc1cc(C(=O)O)cc2c1nc(CN1CCc3cc(C(F)(F)F)c(OCc4c(F)cc(Cl)cc4F)cc3[C@@H]1C)n2C[C@@H]1CCO1 | condition met |
| O=C(O)c1ccc2nc(CN3CCc4cc(C(F)(F)F)c(OCc5ccccc5Cl)nc4C3)n(C[C@@H]3CCO3)c2c1 | condition not met |
| Cc1ccc(COc2cc3c(cc2Cl)CCN(Cc2nc4ccc(C(=O)O)c(F)c4n2C[C@@H]2CCO2)[C@H]3C)cc1 | condition not met |

Problem: For `C[C@H]1c2cc(OCc3c(F)cc(F)cc3F)c(Cl)cc2CCN1Cc1nc2ccc(C(=O)O)c(F)c2n1C[C@@H]1CCO1` , is the recorded EC50 below the cut-off of 0.2 nM?
Solution: condition not met

Problem: For `COc1cc(C(=O)O)cc2c1nc(CN1CCc3cc(Cl)c(OCc4cc(F)c(Cl)cc4F)cc3[C@@H]1C)n2C[C@@H]1CCO1` , is the recorded EC50 below the cut-off of 0.2 nM?
Solution: condition not met

Problem: For `C[C@H]1c2nc(OCc3ccc(Cl)cn3)c(C(F)(F)F)cc2CCN1Cc1nc2c(F)cc(C(=O)O)cc2n1C[C@@H]1CCO1` , is the recorded EC50 below the cut-off of 0.2 nM?
Solution: condition met

Problem: For `C[C@H]1c2cc(OCc3ccc(Cl)cc3)c(Cl)cc2CCN1Cc1nc2ccc(C(=O)O)c(F)c2n1C[C@@H]1CCO1` , is the recorded EC50 below the cut-off of 0.2 nM?
Solution: condition not met

Problem: For `C[C@H]1c2nc(OCc3c(F)cc(F)cc3F)c(C(F)(F)F)cc2CCN1Cc1nc2ccc(C(=O)O)cc2n1C[C@@H]1CCO1` , is the recorded EC50 below the cut-off of 0.2 nM?
Solution: condition met

Problem: For `C[C@H]1c2nc(OCc3ccc(C4CC4)cc3)c(C(F)(F)F)cc2CCN1Cc1nc2ccc(C(=O)O)c(F)c2n1C[C@@H]1CCO1` , is the recorded EC50 below the cut-off of 0.2 nM?
Solution: condition not met

Problem: For `COc1cc(C(=O)O)cc2c1nc(CN1CCc3cc(C(F)(F)F)c(OCc4ccc(C5CC5)cc4)nc3[C@@H]1C)n2C[C@@H]1CCO1` , is the recorded EC50 below the cut-off of 0.2 nM?
Solution: condition met
